Molecular target: Dnmt3a-CD (UniProt O88508 608-908)
Sequence (O88508 608-908): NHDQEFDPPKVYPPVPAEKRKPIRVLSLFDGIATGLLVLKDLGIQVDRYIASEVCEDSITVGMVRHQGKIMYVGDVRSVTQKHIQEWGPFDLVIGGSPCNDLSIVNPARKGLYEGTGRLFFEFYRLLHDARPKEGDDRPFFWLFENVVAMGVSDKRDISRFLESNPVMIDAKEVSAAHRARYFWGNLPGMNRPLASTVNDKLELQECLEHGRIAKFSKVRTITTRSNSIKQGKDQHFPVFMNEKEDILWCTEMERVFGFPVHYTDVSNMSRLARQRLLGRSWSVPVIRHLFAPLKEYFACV
Assay: competition (inhibition of methylation); 300 nM MGMT-ds1-f substrate, 2 uM enzyme, 25 uM AdoMet; BLI: 20 mM HEPES-NaOH pH 7.5, 100 mM KCl, 1 mM EDTA, 0.2 mM DTT, 100 uM AdoHcy, 5% glycerol, 0.02% Tween-20, 0.5 mg/mL BSA, 25 C; inhibition: buffer A (20 mM HEPES-NaOH pH 7.5, 100 mM KCl, 1 mM EDTA, 1 mM DTT) with 25 uM AdoMet, 37 C; FP: buffer A
Settings: protein: recombinant; tags: N-terminal 6xHis; chain copies: 2; no G4 by CD
measurement-type: pIC50
pIC50 is a log-scale quantity: -log10 of the concentration expressed in molar.

Input line: Tell me pIC50 reported for GTGCCGGAGCGCGCGGAGGCGGAG (ssDNA) [MGMT-G4-mut]
Output line: 6.23
